tested on: ragweed; assay: Test C preemergence; format: in vivo, Ambrosia artemisiifolia; details: 500 g ai/ha, preemergence; 0 to 100 scale (0 no effect, 100 complete control)

smiles.record: COc1ncn(-c2cccc(C(=O)N3C[C@H](C)Oc4c(C)cccc43)c2)n1
Ragweed plant response rating: 50
--
smiles.record: CCOC[C@H]1CN(C(=O)c2cc(-n3cnc(C(C)(C)C)n3)ccc2C)c2cccc(Cl)c2O1
Ragweed plant response rating: 70
--
smiles.record: Cc1cccc2c1O[C@@H](C)CN2C(=O)c1cc(-n2cnc(C(C)C)n2)cc2c1CCO2
Ragweed plant response rating: 80
--
smiles.record: COc1ccc(-n2cnc(C3CC3)n2)cc1C(=O)N1C[C@H](C)Oc2c(Cl)cccc21
Ragweed plant response rating: 90

* * *

tested on: ryegrass, Italian; assay: Test C postemergence; assay type: in vivo, Lolium multiflorum; settings: 500 g ai/ha, postemergence, 10 days, 0 to 100 scale (0 no effect, 100 complete control)
Source text: […]
Binarize Plant response rating, Ryegrass, Italian at 70; below is label 1, at or above is label 0.

compound: COC[C@H]1CN(C(=O)c2cc(-n3cnc(C(C)(C)C)n3)cc3c2OCCO3)c2cccc(Cl)c2O1
tested.target: ryegrass, Italian
assigned.class: label 1
//
compound: Cc1cccc2c1OC(C(F)(F)F)CN2C(=O)c1ccnc(-n2cnc(C(C)C)n2)c1 (single isomer, unassigned) [Compound 320]
tested.target: ryegrass, Italian
assigned.class: label 1
//
compound: Cc1cccc2c1O[C@@H](C)CN2C(=O)c1cccc(-n2cnc([N+](=O)[O-])n2)c1
tested.target: ryegrass, Italian
assigned.class: label 1
//
compound: Cc1ccc(-n2cnc(C(C)(C)C)n2)cc1C(=O)N1CC(C(F)(F)F)Oc2c(Cl)cccc21 (stereo not shown)
tested.target: ryegrass, Italian
assigned.class: label 1
//
compound: CC(C)c1ncn(-c2ccc(S(C)(=O)=O)c(C(=O)N3C[C@H](C)Oc4c(Cl)cccc43)c2)n1
tested.target: ryegrass, Italian
assigned.class: label 0
//
compound: Cc1ncn(-c2ccc(F)c(C(=O)N3C[C@H](C)Oc4c(C)cccc43)c2)n1
tested.target: ryegrass, Italian
assigned.class: label 0

* * *

tested on: kochia; experiment: Test A postemergence; format: in vivo, Bassia scoparia; details: Bassia scoparia, post-emergence, 240 h, 500 g ai/ha, postemergence, 10 days, visual injury, 0 to 100 scale (0 no effect, 100 complete control); read-out: Plant response rating, Kochia

compound: Cc1cccc2c1O[C@@H](C)CN2C(=O)c1cccc(-n2cnc(C3COC3)n2)c1 [Compound 109]
pest or weed control at 500 g/ha (%): 90
--
compound: COc1ccc(-n2cnc(C(C)C)n2)cc1C(=O)N1C[C@H](C)Oc2c(Cl)cccc21 [Compound 84]
pest or weed control at 500 g/ha (%): 90
--
compound: COCc1ncn(-c2cccc(C(=O)N3C[C@H](C)Oc4c(C)cccc43)c2)n1 [Compound 101]
pest or weed control at 500 g/ha (%): 80
--
compound: Cc1ccc(-n2cnc(C(C)C)n2)cc1C(=O)N1C[C@H](C)Oc2c(Cl)cccc21 [Compound 73]
pest or weed control at 500 g/ha (%): 100

* * *

test system: pigweed, palmer; test: Test A preemergence; assay type: in vivo, Amaranthus palmeri; settings: 125 g ai/ha, visual injury after 10 days, 0 to 100 scale, 0 is no effect, 100 is complete control
Excerpt: […]
Binarize Plant response rating, Pigweed, Palmer at 70; below is Satisfied, at or above is Not satisfied.

compound: C[C@H]1CN(C(=O)c2cccc(-n3cnc(CC4CCCCC4)n3)c2)c2cccc(Cl)c2O1
assigned.class: Satisfied

compound: Cc1cccc2c1O[C@@H](C)CN2C(=O)c1cccc(-n2cnc(C3CCC3)n2)c1
assigned.class: Not satisfied

compound: Cc1cccc2c1O[C@@H](C)CN2C(=O)c1cccc(-n2cnc(C3CC3)n2)c1
assigned.class: Satisfied

compound: CCc1ccc(-n2cncn2)cc1C(=O)N1C[C@H](C)Oc2c(Cl)cccc21
assigned.class: Satisfied

compound: Cc1cc(F)cc2c1OC(C)CN2C(=O)c1cccc(-n2cncn2)c1 (stereo not drawn)
assigned.class: Satisfied

compound: Cc1ccc(-n2cnc(C(C)(C)C)n2)cc1C(=O)N1C[C@H](C)Oc2c(C)cccc21
assigned.class: Not satisfied

compound: CCc1ncn(-c2cccc(C(=O)N3C[C@H](C)Oc4c(C)cccc43)c2)n1
assigned.class: Not satisfied

compound: Cc1ccc(-n2cnc(C3CCC3)n2)cc1C(=O)N1C[C@H](C)Oc2c(C)cccc21
assigned.class: Not satisfied

compound: Cc1cccc2c1O[C@@H](C)CN2C(=O)c1cccc(-n2cnn(C(C)C)c2=O)c1
assigned.class: Satisfied

compound: CCc1ncn(-c2ccc(C)c(C(=O)N3C[C@H](C)Oc4c(C)cccc43)c2)n1
assigned.class: Not satisfied

compound: Cc1cccc2c1O[C@@H](C)CN2C(=O)c1cccc(-n2ncnc2C(C)C)c1
assigned.class: Satisfied

compound: C[C@H]1CN(C(=O)c2cc(Cl)cc(-n3cncn3)c2)c2cccc(Cl)c2O1
assigned.class: Satisfied

compound: Cc1ccc(-n2cncn2)cc1C(=O)N1C[C@H](C)Oc2c(C)cccc21
assigned.class: Satisfied

compound: CC(C)Cc1ncn(-c2cccc(C(=O)N3C[C@H](C)Oc4c(Cl)cccc43)c2)n1
assigned.class: Satisfied
